Target: T1, αvβ3 integrin (human, UniProt P06756 31-1048; P05106 27-788)
T1 construct: whole, on cells; Same entry used for αvβ3-K562, U-87 MG and A375M cells; also called αvβ3-K562; αvβ3 transfected K562 cells
T1 sequence (P06756 31-1048, chain 1 of 2): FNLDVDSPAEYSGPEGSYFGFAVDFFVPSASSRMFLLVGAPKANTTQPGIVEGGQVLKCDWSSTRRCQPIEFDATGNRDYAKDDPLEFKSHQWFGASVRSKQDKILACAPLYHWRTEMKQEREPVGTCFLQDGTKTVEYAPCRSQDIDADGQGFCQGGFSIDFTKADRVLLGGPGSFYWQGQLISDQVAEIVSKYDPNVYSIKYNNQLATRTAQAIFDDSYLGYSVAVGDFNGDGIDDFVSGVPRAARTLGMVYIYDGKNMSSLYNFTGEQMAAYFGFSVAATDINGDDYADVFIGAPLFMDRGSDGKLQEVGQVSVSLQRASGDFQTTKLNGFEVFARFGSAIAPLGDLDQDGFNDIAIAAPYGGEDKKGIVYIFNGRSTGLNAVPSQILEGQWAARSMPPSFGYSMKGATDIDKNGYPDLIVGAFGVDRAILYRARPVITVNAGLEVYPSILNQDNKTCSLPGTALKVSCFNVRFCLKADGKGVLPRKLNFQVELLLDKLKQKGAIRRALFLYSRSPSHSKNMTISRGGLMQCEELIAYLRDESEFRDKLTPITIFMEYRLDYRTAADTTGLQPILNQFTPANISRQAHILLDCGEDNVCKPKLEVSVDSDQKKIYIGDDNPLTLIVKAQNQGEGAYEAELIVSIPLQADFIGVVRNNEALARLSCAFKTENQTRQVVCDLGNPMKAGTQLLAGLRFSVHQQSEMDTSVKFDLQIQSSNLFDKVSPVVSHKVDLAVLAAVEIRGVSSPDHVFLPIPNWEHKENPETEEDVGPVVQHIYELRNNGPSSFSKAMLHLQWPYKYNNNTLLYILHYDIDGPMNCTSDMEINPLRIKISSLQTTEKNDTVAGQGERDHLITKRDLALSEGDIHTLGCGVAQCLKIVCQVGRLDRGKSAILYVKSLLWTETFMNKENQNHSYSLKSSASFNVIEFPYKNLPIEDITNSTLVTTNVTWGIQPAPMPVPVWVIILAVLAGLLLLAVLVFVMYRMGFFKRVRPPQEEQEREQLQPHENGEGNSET
T1 sequence (P05106 27-788, chain 2 of 2): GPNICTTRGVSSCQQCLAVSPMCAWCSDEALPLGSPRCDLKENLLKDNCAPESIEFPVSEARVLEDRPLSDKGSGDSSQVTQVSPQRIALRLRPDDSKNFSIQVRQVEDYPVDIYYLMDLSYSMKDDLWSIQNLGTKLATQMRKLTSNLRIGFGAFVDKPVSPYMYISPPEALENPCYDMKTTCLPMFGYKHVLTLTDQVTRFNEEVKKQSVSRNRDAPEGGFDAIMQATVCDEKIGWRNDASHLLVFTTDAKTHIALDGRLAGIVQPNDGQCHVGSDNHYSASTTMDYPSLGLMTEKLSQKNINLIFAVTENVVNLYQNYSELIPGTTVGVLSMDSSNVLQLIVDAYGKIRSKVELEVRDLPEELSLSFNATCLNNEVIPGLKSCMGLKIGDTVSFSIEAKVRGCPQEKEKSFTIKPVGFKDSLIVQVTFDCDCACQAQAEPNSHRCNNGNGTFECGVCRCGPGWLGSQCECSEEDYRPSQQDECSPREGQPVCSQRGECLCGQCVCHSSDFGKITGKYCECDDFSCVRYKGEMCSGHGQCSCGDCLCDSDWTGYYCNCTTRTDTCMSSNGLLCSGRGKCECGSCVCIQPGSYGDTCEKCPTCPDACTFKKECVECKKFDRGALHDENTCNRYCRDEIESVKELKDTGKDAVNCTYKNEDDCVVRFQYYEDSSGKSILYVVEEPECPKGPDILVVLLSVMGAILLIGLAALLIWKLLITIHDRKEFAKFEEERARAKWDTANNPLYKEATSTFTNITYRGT
Assay: flow cytometry, saturation binding of LXW7-Bio on A375M cells, streptavidin-PE, nonspecific binding with 100 µM LXW7 subtracted
Bridge positions count the residues as written; N and C are the ends. Square brackets hold non-standard residues; d marks the D form. Ends that are not written are not given here. Ebes = 2,2'-ethylenedioxy bis(ethylamine) monosuccinamide
READOUT_KIND: Kd (nM)
Give bare numbers, in nM.

(Q) Quick one: Kd of [dC]GRGD[dD][dV][dC]-{Ebes-Ebes-K(biotin)-NH2} (disulfide 1-8) [Biotinylated cyclo(cGRGDdvc)] ?
(A) 89

Where do the numbers come from? From patent US9073974B2.
